Listed binders paired with reported pEC50 hGLPR1
biological target: human GLP-1 receptor (hGLP1R) (human, UniProt P43220 24-463); assay: cell-based or functional assay
Numbered stars: 1 amine (or outer) side, 2 acyl side, 3 side chain; on linkers, the order of the positions; unused ones are H or OH. Square brackets hold non-standard residues; d marks the D form. Side chains are listed from the residue outwards. Ends that are not written are not given here. * marks the point of attachment. C20 diacid = O=C(O)CCCCCCCCCCCCCCCCCCC(=O)*; γGlu = O=C(O)[C@H](CCC(=O)[*:2])N[*:1]; AEEA = NCCOCCOCC(=O)O; Aib = CC(C)(N)C(=O)O

H[Aib]EGTFTSDVSRLK([AEEA-AEEA-γGlu-C20 diacid])EFAASQRFLEHLV-NH2 [SEQ ID NO: 52] : 9.9 -log M
H[Aib]EGTFTSDVSVLK([AEEA-AEEA-γGlu-C20 diacid])E[Aib]AAQQRFLEHLV-NH2 [SEQ ID NO: 40] : 10.7 -log M
H[Aib]EGTFTSDVSYLKEEA[Aib]LQRWLEHLV-NH2 (not fully specified (residue 14)) [SEQ ID NO: 135] : 11.3 -log M
H[Aib]EGTFTSDVSRLK([AEEA-AEEA-γGlu-C20 diacid])ETAASQRFLEHLV-NH2 [SEQ ID NO: 71] : 10.2 -log M
H[Aib]EGTFTSDVSFLK([AEEA-AEEA-γGlu-C20 diacid])ETAATQRFLEHLV-NH2 [SEQ ID NO: 70] : 10.7 -log M
H[Aib]EGTFTSDVSELK([AEEA-AEEA-γGlu-C20 diacid])E[Aib]AATQRFLEHLV-NH2 [SEQ ID NO: 82] : 11 -log M
H[Aib]EGTFTSDVSVLK([AEEA-AEEA-γGlu-C20 diacid])ETAAQQRFLEHLV-NH2 [SEQ ID NO: 41] : 11.1 -log M
H[Aib]EGTFTSDVSTLK([AEEA-AEEA-γGlu-C20 diacid])ETAATQRFLEHLV-NH2 (not fully specified) [SEQ ID NO: 93] : 11 -log M
H[Aib]EGTFTSDVSNLKEEA[Aib]LQRFLEHLV-NH2 (not fully specified (residue 14)) [SEQ ID NO: 136] : 10.9 -log M

Problem: Answer with the recorded pEC50 hGLPR1 of H[Aib]WGTFTSDVSYLKEEA[Aib]LQRFLEHLV-NH2 (not fully specified (residue 14)) [SEQ ID NO: 160] only.
Solution: 9.1 -log M
